Tested on: Escherichia coli
Assay Explanation: Antibacterial activity against Escherichia coli harboring pRYC plasmid expressing blaKPC gene by Etest method
Assay type: functional
Task for the reader: assign each of the following molecules its reported MIC.

Q: Report MIC for CCN1CCN(C(=O)N[C@@H](C(=O)N[C@@H]2C(=O)N3[C@@H]2SC(C)(C)[C@@H]3C(=O)O)c2ccccc2)C(=O)C1=O please.
Ans: > 256 µg/mL

Q: Report MIC for CC(C)(O/N=C(\C(=O)N[C@@H]1C(=O)N2C(C(=O)[O-])=C(C[n+]3ccccc3)CS[C@H]12)c1csc(N)n1)C(=O)O please.
Ans: > 256 µg/mL

Q: Report MIC for C[C@@H](O)[C@H]1C(=O)N2C(C(=O)O)=C(S[C@@H]3CN[C@H](C(=O)Nc4cccc(C(=O)O)c4)C3)[C@H](C)[C@H]12 please.
Ans: 4 µg/mL

Q: Report MIC for CO[C@@]1(NC(=O)Cc2cccs2)C(=O)N2C(C(=O)O)=C(COC(N)=O)CS[C@@H]21 please.
Ans: > 32 µg/mL

====

Tested on: Escherichia coli
Assay Explanation: Antibacterial activity against Escherichia coli harboring pBC2303 expressing blaKPC gene plasmid by Etest method in presence of beta-lactamase inhibitor clavulanic acid
Type: functional
Readout Name: MIC

Q: Report MIC for CO/N=C(\C(=O)N[C@@H]1C(=O)N2C(C(=O)O)=C(COC(C)=O)CS[C@H]12)c1csc(N)n1 [CEFOTAXIME] please.
Ans: 0.38 µg/mL

Q: Report MIC for CC1(C)S[C@@H]2[C@H](NC(=O)[C@H](C(=O)O)c3ccsc3)C(=O)N2[C@H]1C(=O)O [TICARCILLIN] please.
Ans: > 256 µg/mL

Q: Report MIC for C[C@@H](O)[C@H]1C(=O)N2C(C(=O)O)=C(S[C@@H]3CN[C@H](C(=O)Nc4cccc(C(=O)O)c4)C3)[C@H](C)[C@H]12 please.
Ans: 0.02 µg/mL

Q: Report MIC for CC1(C)S[C@@H]2[C@H](NC(=O)[C@H](N)c3ccc(O)cc3)C(=O)N2[C@H]1C(=O)O [AMOXICILLIN] please.
Ans: 24 µg/mL

Q: Report MIC for C[C@@H](O)[C@H]1C(=O)N2C(C(=O)O)=C(S[C@@H]3CN[C@H](C(=O)N(C)C)C3)[C@H](C)[C@H]12 [MEROPENEM] please.
Ans: 0.12 µg/mL

====

Test system: Escherichia coli
Assay Explanation: Antibacterial activity against Escherichia coli harboring pRYC plasmid expressing blaKPC gene by Etest method
Assay type: functional
Readout Name: MIC

Q: Report MIC for CO/N=C(\C(=O)N[C@@H]1C(=O)N2C(C(=O)[O-])=C(C[N+]3(C)CCCC3)CS[C@H]12)c1csc(N)n1 please.
Ans: > 32 µg/mL

Q: Report MIC for C[C@@H](O)[C@H]1C(=O)N2C(C(=O)O)=C(SCCNC=N)C[C@H]12 [IMIPENEM ANHYDROUS] please.
Ans: 12 µg/mL

Q: Report MIC for C[C@@H](O)[C@H]1C(=O)N2C(C(=O)O)=C(S[C@@H]3CN[C@H](C(=O)N(C)C)C3)[C@H](C)[C@H]12 please.
Ans: 3 µg/mL

Q: Report MIC for CC1(C)S[C@@H]2[C@H](NC(=O)[C@H](C(=O)O)c3ccsc3)C(=O)N2[C@H]1C(=O)O please.
Ans: > 256 µg/mL

Q: Report MIC for CC1(C)S[C@@H]2[C@H](NC(=O)[C@H](N)c3ccc(O)cc3)C(=O)N2[C@H]1C(=O)O please.
Ans: > 256 µg/mL

Q: Report MIC for CO/N=C(\C(=O)N[C@@H]1C(=O)N2C(C(=O)O)=C(COC(C)=O)CS[C@H]12)c1csc(N)n1 please.
Ans: > 32 µg/mL

Q: Report MIC for CC(=O)OCC1=C(C(=O)O)N2C(=O)[C@@H](NC(=O)Cc3cccs3)[C@H]2SC1 please.
Ans: > 256 µg/mL
